# CONDITION_CONTEXT: in water, 318.2 K
MEASUREMENT_KIND: solubility (mole fraction)

compound_structure_string=O=C(O)c1ccccc1O observed=0.000507

###

# CONDITION_CONTEXT: in acetone, 328.2 K
MEASUREMENT_KIND: solubility (mole fraction)

compound_structure_string=O=C(O)c1ccccc1O measurement_kind="solubility (mole fraction)" observed=0.196

###

# CONDITION_CONTEXT: in isopropanol, 308.2 K
MEASUREMENT_KIND: solubility (mole fraction)

compound_structure_string=O=C(O)c1ccccc1O measurement_kind="solubility (mole fraction)" observed=0.161
